Assay: Preclinical pharmacokinetic study in rats
Format: in vivo, Sprague-Dawley (SD) rats
Settings: male SD rats, oral gavage (p.o.) 10 mg/kg, plasma
Each record is given 1 if its reported HL_ is strictly below 3 h. Records at or above 3 h are given -1.

Examples from the recorded data:
> print(dat)
                                  structure  assigned.label
1  CC(C)n1c(N2CCOCC2)nc2c(F)cc(-c3nc(N[C@@H]4CCOC[C@H]4O)ncc3Cl)cc21              -1
2  CC(C)n1c(N2CCOC2=O)nc2c(F)cc(-c3nc(N[C@@H]4CCOC[C@H]4O)ncc3C(F)(F)F)cc21              -1
3  CC(C)N1CCCn2c1nc1c(F)cc(-c3nc(N[C@@H]4CCOC[C@H]4O)ncc3Cl)cc12               1
4  C[C@H]1CCN(C)c2nc3c(F)cc(-c4cc(N[C@@H]5CCOC[C@H]5O)ncc4Cl)cc3n21               1
5  C[C@H]1CCN(c2ccccc2F)c2nc3c(F)cc(-c4nc(N[C@@H]5CCOC[C@H]5O)ncc4Cl)cc3n21               1
6  C[C@H]1CCN(C2CC2)c2nc3c(F)cc(-c4nc(N[C@@H]5CCOC[C@H]5O)ncc4Cl)cc3n21              -1
7  C[C@H]1CCN(C)c2nc3c(F)cc(-c4nc(Nc5ccncc5)ncc4Cl)cc3n21              -1

Consider now this further molecule.
Query: Here's an entry: C[C@H]1CCN(CC#N)c2nc3c(F)cc(-c4nc(N[C@@H]5CCOC[C@H]5O)ncc4Cl)cc3n21 . Is its HL_ below 3 h?
Response: 1

---

Assay: Preclinical pharmacokinetic study in rats
Assay type: in vivo, Sprague-Dawley (SD) rats
Settings: male SD rats, oral gavage (p.o.) 10 mg/kg, plasma
Lab note: anything with HL_ below 2 h is marked satisfied; values at 2 h or higher are marked not satisfied.

Past entries and their recorded results:
> print(dat)
                                   compound  assigned.label
1  CCS(=O)(=O)N1CCC(Nc2ncc(Cl)c(-c3cc(F)c4nc(N5CCOC5=O)n(C(C)C)c4c3)n2)CC1 [TB-31]       satisfied
2  CC(C)n1c(N2CCOC2=O)nc2c(F)cc(-c3nc(N[C@@H]4CCOC[C@H]4O)ncc3Cl)cc21 [TB-24]   not satisfied
3  C[C@H]1CCN(C)c2nc3c(F)cc(-c4nc(N[C@@H]5CCOC[C@H]5O)ncc4Cl)cc3n21 [TB-92]       satisfied

Query: Lab log: compare recorded HL_ with 2 h; is it strictly lower for [2H]C([2H])([2H])N1CC[C@H](C)n2c1nc1c(F)cc(-c3nc(N[C@@H]4CCOC[C@H]4O)ncc3Cl)cc12 [TA-28] ?
Response: satisfied

Query: Quick check: does C[C@H]1CCN(CC(F)(F)F)c2nc3c(F)cc(-c4nc(N[C@@H]5CCOC[C@H]5O)ncc4Cl)cc3n21 [TA-29] have HL_ under 2 h?
Response: satisfied

Query: Please let me know if CCN1CCCn2c1nc1c(F)cc(-c3nc(N[C@@H]4CCOC[C@H]4O)ncc3Cl)cc12 [TB-109] shows HL_ below 2 h.
Response: not satisfied
